These data points were gathered from paper PMC9413514.

Target: human serum albumin (HSA) (Homo sapiens, UniProt P02768)
Construct: purchased ChromTech (Cedex, France) Chiralpak-HSA
Sequence (P02768 25-609): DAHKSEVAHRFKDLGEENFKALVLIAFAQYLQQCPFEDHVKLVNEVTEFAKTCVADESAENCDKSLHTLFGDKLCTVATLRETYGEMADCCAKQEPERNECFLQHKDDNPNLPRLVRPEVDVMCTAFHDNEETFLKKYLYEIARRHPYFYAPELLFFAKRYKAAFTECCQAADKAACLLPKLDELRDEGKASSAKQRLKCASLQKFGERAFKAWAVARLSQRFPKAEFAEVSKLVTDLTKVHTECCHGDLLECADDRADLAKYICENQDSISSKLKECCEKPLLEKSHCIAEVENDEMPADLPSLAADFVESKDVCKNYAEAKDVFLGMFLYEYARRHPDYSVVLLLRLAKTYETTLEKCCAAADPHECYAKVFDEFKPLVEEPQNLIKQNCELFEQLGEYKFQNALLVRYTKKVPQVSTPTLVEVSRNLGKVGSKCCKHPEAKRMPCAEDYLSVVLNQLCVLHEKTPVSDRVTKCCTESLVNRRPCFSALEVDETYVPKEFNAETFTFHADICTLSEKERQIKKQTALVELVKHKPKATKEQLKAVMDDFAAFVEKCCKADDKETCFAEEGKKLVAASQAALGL
Assay: HSA-HPAC assay (plasma protein binding)
Assay type: in vitro ADME
Settings: Chiralpak-HSA, pH 7.4, 25 °C; spread is RSD in %
Description: The gradient retention times obtained by HSA-HPAC and AGP-HPAC assays were standardized using a calibration set of compounds with known percentage of plasma protein binding data and procedure described in our previously published study. […] This verification assured that the protein affinity indices obtained by HPAC assays depict not only unspecific generally lipophilicity-driven interactions, but also highly specific recognition forces responsible of enantioselectivity. […]
endpoint: HSA Binding ± RSD (%) (n = 3)

| compound | HSA Binding ± RSD (%) (n = 3) |
| --- | --- |
| C[C@H]1[C@H](C)CC[C@]2(C)CC[C@]3(C)C(=CC[C@@H]4[C@@]5(C)CC[C@@H](O)[C@](C)(C(=O)O)[C@@H]5CC[C@]43C)[C@H]12 | 99.79 |
| CC1(C)CCC2(C)CCC3(C)C(=CCC4C5(C)CCC(O)C(C)(C(=O)O)C5CCC43C)C2C1 (stereo not shown) | 98.94 |
| CC(=O)O[C@@H]1CC[C@@]2(C)[C@@H](CC[C@]3(C)[C@@H]2C(=O)C=C2[C@@H]4[C@@H](C)[C@H](C)CC[C@]4(C)CC[C@]23C)[C@@]1(C)C(=O)O | 99.83 |
| O=C(C=Cc1ccc(O)cc1)CC(=O)C=Cc1ccc(O)cc1 | 98.37 |
| CC1CCC2(C)CCC3(C)C(=CC(=O)C4C5(C)CCC(O)C(C)(C(=O)O)C5CCC43C)C2C1C (stereo not shown) | 98.09 |
| COc1cc(/C=C/C(=O)CC(=O)/C=C/c2ccc(O)cc2)ccc1O | 97.97 |
| C=C1CC[C@@H]2[C@](C)(CO)[C@H](O)CC[C@@]2(C)[C@@H]1C/C=C1/C(=O)OC[C@H]1O [Andrographolide, andrographolide] | 80.07 |
| COc1cc(/C=C/C(=O)CC(=O)/C=C/c2ccc(O)c(OC)c2)ccc1O | 97.52 |
| C=C1CC[C@@H]2[C@](C)(CO[C@@H]3O[C@H](CO)[C@@H](O)[C@H](O)[C@H]3O)CCC[C@@]2(C)[C@@H]1CCC1=CCOC1=O [Neoandrographolide, neoandrographolide] | 87.71 |
| O=C(/C=C/C=C/c1ccc2c(c1)OCO2)N1CCCCC1 | 95.48 |

###

test system: α1-acid glycoprotein (AGP); experiment: AGP-HPAC assay (plasma protein binding); format: in vitro ADME; details: Chiralpak-AGP, pH 7.4, 25 °C; spread is RSD in %
endpoint: AGP Binding ± RSD (%) (n = 3)

| molecule | assay_target | AGP Binding ± RSD (%) (n = 3) |
| --- | --- | --- |
| CC(=O)O[C@@H]1CC[C@@]2(C)[C@@H](CC[C@]3(C)[C@@H]2C(=O)C=C2[C@@H]4[C@@H](C)[C@H](C)CC[C@]4(C)CC[C@]23C)[C@@]1(C)C(=O)O [3-Acetyl-11-keto-β-boswellic Acid, 3-acetyl-11-keto-β-boswellic acid] | α1-acid glycoprotein (AGP) | 83.10 |
| C[C@H]1[C@H](C)CC[C@]2(C)CC[C@]3(C)C(=CC[C@@H]4[C@@]5(C)CC[C@@H](O)[C@](C)(C(=O)O)[C@@H]5CC[C@]43C)[C@H]12 [β-Boswellic Acid, β-boswellic acid] | α1-acid glycoprotein (AGP) | 89.15 |
| O=C(C=Cc1ccc(O)cc1)CC(=O)C=Cc1ccc(O)cc1 [Bisdemetoxycurcumin, bisdemetoxycurcumin] | α1-acid glycoprotein (AGP) | 83.14 |

(A) C=C1CC[C@@H]2[C@](C)(CO[C@@H]3O[C@H](CO)[C@@H](O)[C@H](O)[C@H]3O)CCC[C@@]2(C)[C@@H]1CCC1=CCOC1=O [Neoandrographolide, neoandrographolide]
(B) C=C1CC[C@@H]2[C@](C)(CO)[C@H](O)CC[C@@]2(C)[C@@H]1C/C=C1/C(=O)OC[C@H]1O [Andrographolide, andrographolide]
## Input From the items above, decide which of A and B has the lower AGP Binding ± RSD (%) (n = 3) reading. Identify your selection by its label.
## Output B

###

test system: α1-acid glycoprotein (AGP); test: AGP-HPAC assay (plasma protein binding); format: in vitro ADME; settings: Chiralpak-AGP, pH 7.4, 25 °C; spread is RSD in %
endpoint: AGP Binding ± RSD (%) (n = 3)

| compound | assay_target | endpoint | u | observed_measurement |
| --- | --- | --- | --- | --- |
| O=C(/C=C/C=C/c1ccc2c(c1)OCO2)N1CCCCC1 | α1-acid glycoprotein (AGP) | AGP Binding ± RSD (%) (n = 3) | % | 71.98 |
| CC1CCC2(C)CCC3(C)C(=CC(=O)C4C5(C)CCC(O)C(C)(C(=O)O)C5CCC43C)C2C1C (centres unmarked) | α1-acid glycoprotein (AGP) | AGP Binding ± RSD (%) (n = 3) | % | 79.01 |
| COc1cc(/C=C/C(=O)CC(=O)/C=C/c2ccc(O)c(OC)c2)ccc1O | α1-acid glycoprotein (AGP) | AGP Binding ± RSD (%) (n = 3) | % | 83.07 |
| COc1cc(/C=C/C(=O)CC(=O)/C=C/c2ccc(O)cc2)ccc1O | α1-acid glycoprotein (AGP) | AGP Binding ± RSD (%) (n = 3) | % | 82.92 |
| CC1(C)CCC2(C)CCC3(C)C(=CCC4C5(C)CCC(O)C(C)(C(=O)O)C5CCC43C)C2C1 (centres unmarked) | α1-acid glycoprotein (AGP) | AGP Binding ± RSD (%) (n = 3) | % | 89.22 |

###

experiment: Miniaturized shake-flask method (n-octanol/PBS pH 7.4) with HPLC analysis; assay type: physicochemical; details: n-octanol/PBS 20 mM pH 7.4, 25 °C; spread is RSD in %; read-out: log D7.4 ± RSD (%) (n = 3)
endpoint: logD at 1 h

| compound | logD at 1 h |
| --- | --- |
| O=C(/C=C/C=C/c1ccc2c(c1)OCO2)N1CCCCC1 [Piperine, piperine] | 1.67 |
| COc1cc(/C=C/C(=O)CC(=O)/C=C/c2ccc(O)c(OC)c2)ccc1O [Curcumin, curcumin] | 1.94 |
| C=C1CC[C@@H]2[C@](C)(CO)[C@H](O)CC[C@@]2(C)[C@@H]1C/C=C1/C(=O)OC[C@H]1O [Andrographolide, andrographolide] | 1.32 |
| O=C(C=Cc1ccc(O)cc1)CC(=O)C=Cc1ccc(O)cc1 [Bisdemetoxycurcumin, bisdemetoxycurcumin] | 1.72 |
| COc1cc(/C=C/C(=O)CC(=O)/C=C/c2ccc(O)cc2)ccc1O [Demetoxycurcumin, demetoxycurcumin] | 1.52 |
| C=C1CC[C@@H]2[C@](C)(CO[C@@H]3O[C@H](CO)[C@@H](O)[C@H](O)[C@H]3O)CCC[C@@]2(C)[C@@H]1CCC1=CCOC1=O [Neoandrographolide, neoandrographolide] | 1.51 |
